# Test Target: CCR1 (Homo sapiens, UniProt P32246)
# Sequence (P32246 1-355): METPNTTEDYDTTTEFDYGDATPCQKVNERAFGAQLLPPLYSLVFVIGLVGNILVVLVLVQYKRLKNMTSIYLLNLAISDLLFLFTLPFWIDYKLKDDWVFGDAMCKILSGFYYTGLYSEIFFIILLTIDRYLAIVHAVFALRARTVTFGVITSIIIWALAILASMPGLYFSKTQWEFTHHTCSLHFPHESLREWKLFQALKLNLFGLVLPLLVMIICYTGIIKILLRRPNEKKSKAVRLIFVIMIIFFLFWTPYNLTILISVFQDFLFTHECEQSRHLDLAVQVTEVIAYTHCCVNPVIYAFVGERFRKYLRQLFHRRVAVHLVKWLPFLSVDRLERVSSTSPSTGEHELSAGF
# Assay Protocol: Inhibition of CCR1 ligand binding (125I labeled MIP-1α binding to CCR1 expressing cells)
# Parameters: expressed in transfected cells; host or cells: NSO murine myeloma (CCR1-NSO) or HEK 293 (CCR1-293)
# Particulars: CCR1-293 cells; compound titered 1×10^−8 to 1×10^−4 M; * = partially blocked MIP-1α binding at the highest tested concentration; read-out: IC50 (Inhibition Constant; μM), CCR1-MIP-1α binding
Measured Attribute: IC50 (µM)
Numbers only, in µM.

>  <Molecule>
O=C(C[n+]1ccc(-c2ccccc2)cc1)Nc1ccc([N+](=O)[O-])cc1

>  <Unit Text>
µM

>  <IC50>
2

$$$$
>  <Molecule>
CC[n+]1c(/C=C/C=C2/N(C)c3ccccc3C2(C)C)ccc2c1c1cc(Br)ccc1n2C

>  <Unit Text>
µM

>  <IC50>
2

$$$$
>  <Molecule>
c1ccc(C2C3=C(Nc4nc5ccccc5n42)c2ccccc2CCC3)cc1 (stereo not drawn)

>  <Unit Text>
µM

>  <IC50>
2

$$$$
>  <Molecule>
O=C1NCCCCC1N(Cc1ccccc1F)C(=O)C(c1ccccc1)c1ccccc1 (stereo not drawn)

>  <Unit Text>
µM

>  <IC50>
2

$$$$
>  <Molecule>
S=c1[nH]nc(-c2ccc(Cl)cc2)n1-c1cccnc1

>  <Unit Text>
µM

>  <IC50>
18

$$$$

Attention now shifts to the item below.
stdin: Using the record for O=C(c1ccc(Cl)c(Cl)c1)C12CN3CN(CN(C3)C1)C2 , state its measured IC50.
stdout: 2
